Data origin: ChEMBL document CHEMBL5518172

Each item that follows carries a reported MIC.
Tested on: Escherichia coli
Test description: Synergistic antibacterial activity against Escherichia coli BL21 (DE3) harboring NDM-1 assessed as meropenem MIC at 64 microg/ml measured after 16 hrs by CLSI protocol based broth microdilution method (reference value: 256 microg/ml)
Assay type: functional
Test context: dose 64 µg/ml
Answer in mg/L, number only, no unit symbol.

Consider the worked cases shown below.
Compound	MIC (mg/L)
CCOC(=O)ONC(=O)CC(c1ccccc1)c1ccccc1	128
CCCCCOC(=O)ONC(=O)CCCc1ccccc1	64
O=C(CC(c1ccccc1)c1ccccc1)NOC(=O)OCc1ccccc1	64
O=C(CCCc1ccccc1)NOC(=O)OCc1ccccc1	32
CC(=O)NOC(=O)OCc1ccccc1	64

Entry under review: CCOC(=O)ONC(=O)CCCc1ccccc1 . Reported MIC? 64

Entry under review: O=C(CCC1CCCCC1)NOC(=O)OCc1ccccc1 . Reported MIC? 64

Entry under review: CCOC(=O)ONC(=O)CCc1ccccc1 . Reported MIC? 128

Entry under review: O=C(OCc1ccccc1)ONC(=O)c1ccccc1 . Reported MIC? 128

Entry under review: CCOC(=O)ONC(=O)C(CC)c1ccccc1 (stereo not drawn) . Reported MIC? 128

Entry under review: O=C(CCc1ccccc1)NOC(=O)OCc1ccccc1 . Reported MIC? 64

Entry under review: CC(C)COC(=O)ONC(=O)CCC1CCCCC1 . Reported MIC? 64

Entry under review: CC(C)COC(=O)ONC(=O)CCCc1ccccc1 . Reported MIC? 64

Entry under review: CCCCCOC(=O)ONC(=O)CCc1ccccc1 . Reported MIC? 64

Entry under review: CCCCCOC(=O)ONC(=O)C(CC)c1ccccc1 (stereo not drawn) . Reported MIC? 128

Entry under review: CC(C)COC(=O)ONC(=O)CCc1ccccc1 . Reported MIC? 128

Entry under review: CCOC(=O)ONC(=O)CCC1CCCCC1 . Reported MIC? 64

Entry under review: O=C(OCc1ccccc1)ONC(=O)C1CCCCC1 . Reported MIC? 128
